assayedTarget: Torsin-1A (Homo sapiens) (UniProt O14656)
Sequence (O14656 whole entry, looked up): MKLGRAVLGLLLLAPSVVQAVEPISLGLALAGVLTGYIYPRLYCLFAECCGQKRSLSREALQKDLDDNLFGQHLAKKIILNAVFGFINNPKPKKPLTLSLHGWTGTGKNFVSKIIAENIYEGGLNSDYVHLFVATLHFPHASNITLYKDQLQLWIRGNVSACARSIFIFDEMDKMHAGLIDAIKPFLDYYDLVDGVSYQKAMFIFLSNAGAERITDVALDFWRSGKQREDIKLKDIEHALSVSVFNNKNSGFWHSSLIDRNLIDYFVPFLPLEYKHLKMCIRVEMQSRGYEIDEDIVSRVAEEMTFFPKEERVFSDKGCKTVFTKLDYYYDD
testMethodNotes: torsin A binders from cell lysate, primary screen, small-molecule microarray, wild-type, 635/667 nm (AID 1149)
testConditions: COS7 hTOR1A-WT lysate, 635 nm fluorescence, higher = more signal
experimentalEndpoint: composite z-score

{"molecule": "COc1ccc(C#Cc2ccc3c(c2)[C@]2(C(=O)N3)[C@H](c3ccc(OCCO)cc3)N3[C@H](c4ccccc4)[C@H](c4ccccc4)OC(=O)[C@H]3[C@@H]2C(=O)O)cc1", "experimentalEndpoint": "composite z-score", "experimentalValue": 0.546}
{"molecule": "CCCC[C@@H]1C[C@H]1[C@@H](NC(=O)Cc1ccccc1)c1ccc(Cl)cc1", "experimentalEndpoint": "composite z-score", "experimentalValue": 0.578}
{"molecule": "COc1cc(OC)c(C(O)C2C=CC3C(=O)N(c4ccccc4)C(=O)C3N2Nc2ccccc2F)cc1Br (centres undefined)", "experimentalEndpoint": "composite z-score", "experimentalValue": 2.01}
{"molecule": "COc1ccc([Si](C)(C)[C@H]2[C@H](CCO)O[C@@]3(C(=O)N(Cc4ccc(N5CCOC5=O)cc4)c4ccccc43)[C@@H]2C)cc1", "experimentalEndpoint": "composite z-score", "experimentalValue": 0.216}
{"molecule": "CCOC(=O)C[C@H]1[C@H](OC(=O)c2cc3ccccc3oc2=O)[C@@H](NC(=O)C2CCCCC2)c2cc(OCCCO)ccc2N1C(=O)Cc1ccc(OC)cc1", "experimentalEndpoint": "composite z-score", "experimentalValue": 0.144}
{"molecule": "CCCCC(O)C1C=CC2C(=O)NC(=O)C2N1Nc1ccc(Cl)cc1Cl (centres undefined)", "experimentalEndpoint": "composite z-score", "experimentalValue": -0.58}
{"molecule": "Cc1ccccc1C(O)C1C=CC2C(=O)N(c3ccccc3)C(=O)C2N1Nc1ccccc1F (centres undefined)", "experimentalEndpoint": "composite z-score", "experimentalValue": 0.575}
{"molecule": "C=CC[C@]1(C(=O)NCCCOC)N=C(c2ccc(OCCCO)cc2)O[C@H]1c1ccccc1", "experimentalEndpoint": "composite z-score", "experimentalValue": 0.872}
{"molecule": "C=C(/C(=C/C[C@@H](OC(C)=O)c1ccccc1OCCO)c1cc(C(=O)OC)ccc1OC)C(C)C", "experimentalEndpoint": "composite z-score", "experimentalValue": 0.212}
{"molecule": "C=CCOC(=O)[C@@H]1[C@H]2C(=O)O[C@H](c3ccccc3)[C@H](c3ccccc3)N2[C@H](c2ccc(OCCOC(=O)[C@H]3C[C@H]4C(=O)NCC(=O)N4[C@H]3c3ccc(O)cc3)cc2)[C@@]12C(=O)Nc1ccc(I)cc12", "experimentalEndpoint": "composite z-score", "experimentalValue": 1.11}
{"molecule": "COCCOC(=O)N1C(=O)[C@@]2(c3cc(C#CC4(O)CCCCCC4)ccc31)[C@H](c1ccccc1OCCO)N1[C@H](c3ccccc3)[C@H](c3ccccc3)OC(=O)[C@H]1[C@@H]2C(=O)N1CCCCCCC1", "experimentalEndpoint": "composite z-score", "experimentalValue": 0.812}
{"molecule": "O=C(NCC(F)(F)F)[C@@H]1c2ccccc2C(=O)N(CC23CC4CC(CC(C4)C2)C3)[C@H]1c1ccc(CO)cc1", "experimentalEndpoint": "composite z-score", "experimentalValue": 0.11}
{"molecule": "C[C@H]1C2[C@H](Cc3ccccc3)NC(=O)[C@]23C(=O)NCC(=O)N2CCC[C@H]2C(=O)NC/C=C\\C/C=C/C3[C@@H]2O[C@]12C (some centres undefined)", "experimentalEndpoint": "composite z-score", "experimentalValue": -0.266}
{"molecule": "NCCCC[C@@H]1NC(=O)[C@H]2C[C@@H](C(=O)NCc3ccc(F)cc3)[C@@H](c3cccc(OCCO)c3)N2C1=O", "experimentalEndpoint": "composite z-score", "experimentalValue": 0.608}
